// data source = patent US20140005125A1

Target: T1, Recombinant human PDGF-BB (human, UniProt P01127 82-190)
T1 construct: For SPR it was chemically biotinylated on primary amines and captured on neutravidin; also called PDGF-BB (human); Reliatech 200-055
T1 sequence (P01127 82-190 limits assumed): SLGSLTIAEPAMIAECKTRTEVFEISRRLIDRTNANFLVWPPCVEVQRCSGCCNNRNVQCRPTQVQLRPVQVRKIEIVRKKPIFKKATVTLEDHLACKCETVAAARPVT
Assay: SPR (ProteOn), biotinylated PDGF-BB on neutravidin chip, DARPin injected; Kd from on- and off-rates
pKd: −log10 of the molar value.

| Binder | pKd |
| --- | --- |
| DARPin #35 (designed binder) MRGSHHHHHHGSDLGQKLLYAAEHGQDDEVRILLAAGADVNAKDQTGSTPLHYAAVWGHMEIVEVLLKAGADVNAQDLWGATPADLAAFLGHEDIAVVLQKLN | 10.02 |
| DARPin #40 (designed binder) MRGSHHHHHHGSDLGYKLLSAAQYGQDDEVRILLAAGADVNAKDYSGTTPLHYAATWGHLEIVEVLLKAGADVNAQDIYGATPADLAALIGHEDIAEVLQKLN | 10.46 |
| DARPin #31 (designed binder) MRGSHHHHHHGSDLGKKLLEAARAGQDDEVRELLKAGADVNAKDEEGTTPLHYAAVFGHLEIVEVLLKAGADVNAQDIYGATPADLAALVGHEDIAEVLQKLN | 9.96 |
| DARPin #45 (designed binder) MRGSHHHHHHGSDLGKKLLEAARAGQDDEVRELLKAGADVNAKDKSGHTPLHLAAYSGHLEIVEVLLKAGADVNAKDQEGTTPLHFAASVGHLEIVEVLLKAGADVNAQDHYGATPADLAALIGHEDIAEVLQKLN | 9.97 |
